Assay overview: 384-well plate pilot, post-Golgi transport modulator project, inhibition of yeast transport mutant growth (AID 636)
Experimental context: absorbance 615 nm, about 18 h, stronger effect = higher value
inhibition overview
Write it as a number; the unit % goes unstated.

These solved cases illustrate the format of a correct answer.
{"columns": ["Compound", "inhibition, %"],
 "data": [
  ["O=C1NC(c2ccccc2)(C(F)(F)F)SC2=CCCCCN12 (configuration not stated)", -3.29],
  ["O=c1[nH]c2c(s1)C(c1ccco1)C1C3CCC(C3)C1S2 (configuration not stated)", -3.29],
  ["CC(C)OC(=O)CSc1nnc(-c2ccco2)n1N", -5],
  ["CCCOc1ccc(-c2nnn(CC(=O)Nc3cccc(C(=O)OC)c3)n2)cc1", 1.87],
  ["Cc1ccccc1CS(=O)(=O)CCC(=O)N1CCN(c2ccc(N3CCOCC3)nn2)CC1", -2.24]
]}

What does the record list as inhibition for CC(=O)Nc1ccc(S(=O)(=O)N2CCN=C2C)cc1 ? -6.27

# repeat for Cc1cc(C)c2c(N)c(C(=O)N3CCN(c4ncccn4)CC3)sc2n1 -5.53

Try the compound Cc1ccc(C(C)n2cc(C(=O)NCCN3CCN(C)CC3)nn2)cc1 (configuration not stated) -2.21

Further, for Cc1occc1C(=O)Nc1ccccc1NC(=O)c1ccoc1C ? -4.67

Same thing, different compound: NC(=O)c1c(NC(=O)CN2CCCC2)sc2c1CCCC2 -0.8

Param item: O=C1C(Cl)=C(N2CCOCC2)C(=O)N1CCc1ccccc1 -6.27

Proceed to Cc1nc2sc(C(c3ccccc3)N3CCN(c4ccccc4F)CC3)c(O)n2n1 (configuration not stated) 0

Also check CS(=O)(=O)N1CCN(CC2CC3C=CC2C3)CC1 (configuration not stated) -6.35

Entry to check: Cc1cccc(N=C2NC(=O)CS2)c1C 0.4

Another compound: Cc1ccc(S(=O)(=O)N2CCC(C(=O)N3CCC[C@H]3C(=O)NCc3ccccc3)CC2)cc1 -4.81

// same read-out, input: O=C(c1ccc(Br)o1)N(c1ccc(Br)cc1)C1C=CS(=O)(=O)C1 (configuration not stated) 5

Ok, now Clc1cccc(Nc2c3c(nc4ncnn24)CCC3)c1 1.82

Then what about the compound O=C(Nc1ccccc1C(=O)N1CCN(c2ccccc2)CC1)c1ccco1 ? -2.53

Repeat for the following compound: Cc1ccc(S(=O)(=O)N2CCC(C(=O)NCCN3CCCCCC3)CC2)cc1 0.13

---

Parameter viability: see the listing below.
Assay overview: reversal of MRP1-mediated doxorubicin resistance, pilot screen, H69AR cells, doxorubicin co-treatment (AID 601)
Experimental context: H69AR cells + 2 uM doxorubicin, CellTiter-Glo, 72 h; measured here: viability with 2 uM doxorubicin; at 10 µM; stronger effect = lower value
Report the value in % with no unit label.

{"columns": ["Structure string", "Value kind", "Value measured"],
 "data": [
  ["Cc1cc(NC(=O)NC(=O)c2cccc(OC(F)(F)C(F)F)c2)n[nH]1", "viability", 98],
  ["COc1cccc(Oc2cnc(N)nc2-c2ccc(OC)cc2O)c1", "viability", 58.2],
  ["O=C(c1ccc2ccccc2n1)N1CCN(c2ccccc2)CC1", "viability", 98.6],
  ["Cc1cc(NS(=O)(=O)c2ccccc2)n(-c2ccccc2)n1", "viability", 98.6],
  ["CCN(Cc1nc2ccccc2c(=O)[nH]1)Cc1nc2cc(OC)c(OC)cc2c(=O)[nH]1", "viability", 92.1]
]}

Reported viability for COc1ccc(Cl)c(NCCC(=O)O)c1 : what is it? 88.5

---

Assay overview: growth suppression of yeast trafficking mutant, preliminary HTS, modulators of trafficking downstream of Golgi apparatus project, 1536-format plate, OD 615 nm (AID 637)
Experimental context: yeast transport mutant growth, absorbance 615 nm, 18 h; stronger effect = higher value
inhibition by entry:
Reply with just the number (in %).

Example results:
{"columns": ["Compound", "Value measured"],
 "data": [
  ["COc1cccc(CN2CCN(C(=O)CC(C)C)CC2)c1", -0.83],
  ["CC1=C(C(=O)N2CCCCC2)C2(CCC(C)CC2)OC1=O (stereo not drawn)", -3.61],
  ["O=C1NC(Nc2ccccn2)(C(F)(F)F)C(=O)N1c1ccc(F)cc1 (stereo not drawn)", 1.64]
]}

// lookup inhibition for COCCn1c(CN2CCN(c3cccc(Cl)c3)CC2)nc2c1c(=O)n(C)c(=O)n2C 1.83

Same thing, different compound: CC1CCCCC1NC(=O)CCCc1nc2ccccc2c(=O)[nH]1 (stereo not drawn) 2.46

Continue with Cc1cc(C)nc(NC(=O)c2ccc(OC(C)C)cc2)n1 -4.13

CC1=C(n2nnc3ccccc32)C(c2ccccc2)C(C#N)=C(N)O1 (stereo not drawn) ? -4.1

---

Recorded viability for the following molecules
Assay overview: HUVEC growth inhibition – cell-based, human, primary screen (AID 575);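 note: 100% = median of untreated cell wells with 0.1% DMSO on each plate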
Experimental context: HUVEC proliferation, CellTiter-Glo luminescence, 72 h; at 10 µM; stronger effect = lower value
The response must be a number in % with no trailing unit.

{"columns": ["Molecule", "Unit info", "viability"],
 "data": [
  ["COC(=O)c1cc(Br)c(=O)n(CCN2CCOCC2)c1", "%", 81.5]
]}

Sample O=c1c2[nH]c3ccccc3c2ncn1CCCn1ccnc1 — what was its viability? 93.7

Next molecule: CCCCCC1CC(CC(C)C(=O)Nc2nncs2)C(=O)O1 (configuration not stated) 85.2

For CCOC(=O)c1c(NC(=O)CSc2nnc(-c3ccc(OC)cc3)o2)sc2c1CCC2 then? 76.1

# iterate: COc1ccc(C(=O)Cn2c(N3CCCCC3)nc3c2c(=O)n(C)c(=O)n3C)cc1OC 83.9

// repeat for O=C(/C=N/O)NCc1ccncc1 and report 102

CCOCCn1cnc2sc(C(=O)NCC(=O)OCC)c(C)c2c1=O ? 86.6

Quick one: N#CC1=C(N)N(c2ccccc2)C2=C(C(=O)CCC2)C1c1cccs1 (configuration not stated) 80.8

Record: CCC(C)N=C1SCC(C)(/C=N/O)S1 (configuration not stated) 116

Another molecule to check: CC1(C)Cc2c(sc3c2C2=NCCN2C=N3)CO1 91.5

Another: Cc1ccc(Cc2c(C)nc3c(C(=O)O)cnn3c2C)cc1 85.5

Now the same for COc1ccccc1OCCSc1nc2ccccc2c(=O)[nH]1 84.6

---

Assay overview: reversal of MRP1-mediated doxorubicin resistance, pilot screen, H69AR cells, doxorubicin co-treatment (AID 601)
Experimental context: H69AR cells + 2 uM doxorubicin, CellTiter-Glo, 72 h; at 10 µM; stronger effect = higher value
Below, each entry is listed with its recorded differential viability (reversal).
# unit: % | format: bare number

Example entries begin here.
{"columns": ["Compound", "Value kind", "Unit info", "Value measured"],
 "data": [
  ["COc1ccc(NCc2nnc(SCC(=O)Nc3cc(C)cc(C)c3)o2)cc1", "differential viability (reversal)", "%", -3.66],
  ["COC(=O)C1=C(C)NC(=O)C1(NC(=O)c1cccnc1)C(F)(F)F (configuration not stated)", "differential viability (reversal)", "%", 14],
  ["CCn1c(=O)cc(SCC(=O)N2CCN(C3CCCCC3)CC2)c2ccccc21", "differential viability (reversal)", "%", 7.01],
  ["O=S(=O)(NCC1CCCO1)c1cccc(C(F)(F)F)c1 (configuration not stated)", "differential viability (reversal)", "%", 6.7],
  ["CCOC(=O)CNC(=O)Nc1ccccc1C(=O)OC", "differential viability (reversal)", "%", 8.77]
]}

Consider the compound CSc1ccc(S(=O)(=O)Nc2cccc(F)c2)cc1 and give its measured differential viability (reversal). -0.325

Cool, now Cc1cccc(NC(=O)Cn2c(=O)n(C)c3ccccc32)c1 9.13

Input C/C(N)=C(/C#N)C(=O)CSc1nnc(Nc2cccc(C)c2)s1 7.75

Next record, please: CN(C)c1ccc(NC(=O)c2cc3c(=O)n4ccccc4nc3n2C)cc1 -3.47

Also COC(=O)c1cccc(S(=O)(=O)N2CCN(c3nc4ccccc4s3)CC2)c1 ? 8.71

Another compound to look at: N#Cc1nc(-c2ccco2)oc1NCc1ccco1 8.27

Would you mind doing O=S(=O)(Nc1cccnc1)c1cc(Cl)ccc1Cl as well? -4.94

Cool, now O=C1CCN(C(=O)c2ccccc2)C2CCCCC12 (configuration not stated) -0.825

Field entry: COC(=O)c1cc(-c2c(C)oc3cc(O)ccc3c2=O)c(C)o1 -6.25

Request: CCC(=O)N1Cc2ccccc2-c2ccccc2C1=O 4.75

Likewise for COCCn1nnnc1CN(Cc1cccnc1)Cc1cc2cc(OC)ccc2[nH]c1=O ? 8.82

Would you mind doing O=C(NCc1ccc2c(c1)OCO2)C1CCCN(S(=O)(=O)c2cccnc2)C1 (configuration not stated) as well? 7.61

How about this compound: CSc1cccc(NC(=O)C2CCCN2S(=O)(=O)c2ccc3c(c2)CCC(=O)N3)c1 (configuration not stated) 0.435

Proceed to O=C(CC1CCS(=O)(=O)C1)Nc1ccc[nH]c1=O (configuration not stated) 14.1

Moving on to the next compound: Cc1ccc2c(c1)-c1cc(C)nn1C(c1ccc3c(c1)OCO3)N2 (configuration not stated) -11.2

Here is the next compound: O=C(NCCCN1CCCC1=O)c1cncc(Br)c1 10.1

Field entry: CCN(CC)S(=O)(=O)c1ccc2oc(SCc3ccc(F)cc3)nc2c1 -14.8

Next compound: CN(C)c1ccc(NC(=O)CSCc2nc3c(nnn3Cc3ccc(F)cc3)c(=O)[nH]2)cc1 4.32

Another: Cc1nnc(SCc2ccccc2)n1N 0.72

Next compound up: Cc1cccc(NC2SC(=O)N(c3ccccc3)C2=O)c1 (configuration not stated) -10.4

Entry source: PubChem BioAssay
